Data credit: ChEMBL document CHEMBL2321839

This section presents compounds with their documented MTC values.
System: Mus musculus
Test: Neurotoxicity against ip dosed Swiss albino mouse after 4 hrs by rotarod test
Type: toxicity, organism-based
Conditions: in vivo
Please reply with the bare figure in mg/kg and do not write the unit itself.

Sample answers from the record:
CC(C)=CC/C=C(/C)C/C=N/NC(=O)Nc1nnc(-c2ccccc2)o1; 300
C=C(C)[C@@H]1CC=C(C)/C(=N/NC(=O)Nc2nnc(-c3ccccc3O)o2)C1; 300
O=C1NC(=O)C(c2ccccc2)(c2ccccc2)N1; 100
CC(C)=CC/C=C(/C)C/C=N/NC(=O)Nc1nnc(-c2ccc(C)cc2)o1; 300

For the compound shown here, "C=C(C)[C@@H]1CC=C(C)/C(=N/NC(=O)Nc2nnc(-c3ccccc3)o2)C1" , give the reported MTC.
300

Fill in: MTC of NC(=O)N1c2ccccc2C=Cc2ccccc21 [CARBAMAZEPINE] is ___
300
